target: T1, LNX2_2, Q8N448
T1 sequence (Q8N448 334-432, limits assumed, looked up): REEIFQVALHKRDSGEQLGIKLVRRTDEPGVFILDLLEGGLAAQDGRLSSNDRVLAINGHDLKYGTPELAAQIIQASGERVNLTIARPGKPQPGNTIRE
measurementDescription: holdup assay
Set-up: key: below the threshold = too weak to quantify, mostly under pKd 3.1 to 4
reportedConditions: plain residues with an end cap or a label only (N-terminal biotin on a linker: ado-ado)

- binder: "KLQNPNQSVV [TYRP1, P17643]"
  pKd: 4.32
- binder: "QQGLLPHSSC [TYRO3, Q06418]"
  pKd: "below the threshold"
- binder: "NTALVESEDL [PALLS, Q8WX93;Q8WX93-1]"
  pKd: "below the threshold"
- binder: "DAAHHDESNC [FMNL3, Q8IVF7]"
  pKd: "below the threshold"
- binder: "VKQYADVEGF [HNRNPK, P61978;P61978-2]"
  pKd: "below the threshold"
- binder: "VYEVPVETKF [SLC26A3, P40879]"
  pKd: "below the threshold"
- binder: "HDDYFYHDEL [RCN2, Q14257]"
  pKd: "below the threshold"
- binder: "QLKSGRDSTV [TMEM178A, Q8NBL3]"
  pKd: 3.49
